Catalogue of compounds with associated residual activity
- experimental.system: INSRR (human)
- procedure.summary: radiometric filter-binding kinase assay
- condition.info: compound 10.0 µM

O=C1Nc2nc(-c3c(O)cccc3OCC3CC3)cc(C3CCCNC3)c2CO1 (stereo not given) ... 45%
Oc1ccc(/C=C/c2cc(O)cc(O)c2)cc1 ... 62%
N#Cc1c(O)c2c(-c3ccc(-c4ccccc4O)cc3)csc2[nH]c1=O ... 88%
O=C(N[C@@H](COc1ccc2[nH]c(=O)[nH]c2c1)c1ccccc1)c1cccn(Cc2ccc(F)c(F)c2)c1=O ... 105%

Let's switch to this compound now.
Measured residual activity for this entry `C=CC(=O)N1CCC[C@@H](n2nc(-c3ccc(Oc4ccccc4)cc3)c3c(N)ncnc32)C1` on INSRR (human): 29%

###

Catalogue of compounds with associated residual activity
- experimental.system: UniProtKB P17612
- procedure.summary: radiometric filter-binding kinase assay
- condition.info: compound 10.0 µM
Express it in %; write the number only.

Would you please look over these solved cases?
NCC(=O)Nc1ccc(-n2nc(C(F)(F)F)cc2-c2ccc3c(ccc4ccccc43)c2)cc1 ... 93
CC(C)C[C@H](NC(=O)CNC(=O)c1cc(Cl)ccc1Cl)B1OC(=O)CC(CC(=O)O)(C(=O)O)O1 (stereo partly specified) ... 95
COc1cc2ncn(-c3cc(OCc4ccccc4S(C)(=O)=O)c(C#N)s3)c2cc1OC ... 83
CCCCCc1ccc(/C=C/[C@H](O)[C@@H](CO)NC)cc1 ... 107
CNc1nc(-c2ccc3c(N)n[nH]c3c2)cc(N2C[C@@H](C(=O)NC3CCCCC3)CC[C@H]2C)n1 ... 84

Measured residual activity for this entry `COC(=O)/C=C/C(=O)OC` on UniProtKB P17612: 92

Measured residual activity for this entry O=C(NOCC(O)CO)c1ccc(F)c(F)c1Nc1ccc(I)cc1Cl (stereo unspecified) on UniProtKB P17612: 103

Measured residual activity for this entry `CN1C(=O)[C@@H](Cc2c[nH]c3ccccc23)NC1=S` on UniProtKB P17612: 93

###

- experimental.system: MAPK9 (human)
- procedure.summary: radiometric filter-binding kinase assay
- condition.info: compound 1.0 µM
quantity.name: residual activity (%)
Express it in %; write the number only.

Would you please look over these solved cases?
NC(=O)c1ccc(-c2ccc(Oc3cncc4sc(-c5nn[nH]n5)cc34)cc2)cc1 ... 99
O=C(N[C@@H](COc1ccc2[nH]c(=O)[nH]c2c1)c1ccccc1)c1cccn(Cc2ccc(F)c(F)c2)c1=O ... 97
Cc1nc(-c2ccc(OCC(C)C)c(C#N)c2)sc1C(=O)O ... 90
C[C@H]1CCCC(=O)CCC/C=C/c2cc(O)cc(O)c2C(=O)O1 ... 46
c1ccc2c(-c3cnn4cc(-c5ccc(N6CCNCC6)cc5)cnc34)ccnc2c1 ... 103

Measured residual activity, `CCn1c(-c2nonc2N)nc2cncc(CNC3CCNCC3)c21` : 103

###

- experimental.system: MAPKAPK3 (human) (UniProt Q16644)
- Sequence (Q16644 whole entry, looked up): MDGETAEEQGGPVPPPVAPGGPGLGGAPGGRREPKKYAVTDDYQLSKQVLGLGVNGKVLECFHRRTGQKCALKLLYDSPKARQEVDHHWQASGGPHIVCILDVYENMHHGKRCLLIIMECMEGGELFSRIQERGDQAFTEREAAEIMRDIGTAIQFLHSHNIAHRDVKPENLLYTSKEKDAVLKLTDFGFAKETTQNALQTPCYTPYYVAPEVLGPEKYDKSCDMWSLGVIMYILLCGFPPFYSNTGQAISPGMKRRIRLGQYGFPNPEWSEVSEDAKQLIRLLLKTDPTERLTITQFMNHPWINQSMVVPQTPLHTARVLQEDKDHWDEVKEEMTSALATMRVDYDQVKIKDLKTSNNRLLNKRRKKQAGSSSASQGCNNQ
- procedure.summary: radiometric filter-binding kinase assay
- condition.info: compound 1.0 µM
Catalogue of compounds with associated residual activity
Express it in %; write the number only.

Oc1ccc2ccccc2c1SSc1c(O)ccc2ccccc12 ... 26

Measured residual activity, COc1cc(O)c2c(c1)[C@H]1OC1C[C@H](O)[C@H](O)C(=O)/C=C\C[C@H](C)OC2=O (stereo not given in full) : 99

Measured residual activity, `CN1C(=O)[C@@H](Cc2c[nH]c3ccccc23)NC1=S` : 119

Measured residual activity, `CNc1nc(-c2ccc3c(N)n[nH]c3c2)cc(N2C[C@@H](C(=O)NC3CCCCC3)CC[C@H]2C)n1` : 91

Measured residual activity, `O=C(N[C@@H](COc1ccc2[nH]c(=O)[nH]c2c1)c1ccccc1)c1cccn(Cc2ccc(F)c(F)c2)c1=O` : 109
